Source listed as the nanobody polyreactivity screen of Harvey et al. (2022).

# assay_name: yeast display, Sf9 membrane polyspecificity reagent, FACS + sequencing; frameworks hold sequencing errors
measured_quantity: polyreactivity (PSR sort gate)

1. QVQLVESAGGVVQAGGSLRLSSAASGSIFDGNAMGWYRPAPGKERQLVAAISGGGRTYYADSVKGRFTISRDNAKNTVYLQMNSLKPEDTAVYYCAAAYTFYVYGSYKVTFDYWGQGTQVTVSS = low polyreactivity
2. QVQLVESGGGLVQAGGSLRLSCAASGNIFVYNAMGWYRQAPGKERELVAAISWTGGSTYYADSVKGRFTISRDNAKNTVYLQMNSLKPEDTAVYYCAKSFGIWHARWLTYDYWGQGTQVTVSS = low polyreactivity
3. QVQLVESGGGLVQAGGSLRLSCAASGSTFDDNAMGGYREAPRKERELVAGISDGDDSTNYADSVKGRFTISRDNAKNTVYLQMNSLTPEDTEVYFCNARYVRTYGVRFGYDYWGQGTQVTVSS = low polyreactivity
4. QVQLVESGGGLVQAGGSLRLSCAASGSILGYYAMGWYRQAPGKERELVAAITASGGSTYYADSVKGRFTISRDNAKNTVYLQMNSLKPEDTAVYYCAARRIAPYGRYDYWGQGTQVTVSS = low polyreactivity
5. QVQLVESGGGLVQAGGSLRLSCAASGYTFPRYAMGWYRQAPGKERELVATINWTGSNTYADSVKGRFTISRDNAKNTVYLQMNSLKPEDTAVYYCAKDSWNVRSGRYNYWGQGTQVTVSS = low polyreactivity
6. QVQLVESGGGLVQAGGSLRLSCAASGSTLQRYAMGWYRQAPGKERELVAAISSGGRTYYADSVKGRFTISRDNAKNTVYLQMNRLKPEDTAVYYCAAVLPARSEPVRYYYWGQGTQVTVSS = high polyreactivity
7. QVQLVESGGGLVQAGCSLRLSCAASGYIFYIYAMGWYRQAPGKERELVAAITWSGDTTYYADSVKGRFTISRDNAKNTVYLQMNSLKPEDTAVYNCATYYYYPSWYLLYGEYNYWGQGTQVTVSS = low polyreactivity
8. QVQLVESGGGLVQAGGSLRLSCAASGSIFSFYAMGWYRQAPGKERELVAAIRYSRGSTYYADSVKGRFTISRDNAKNTVYLQMNSLKPEDTAVYFCAARGGSRRFQSQAYSLPRYDYWGQGTQVTVSS = high polyreactivity
9. QVQLVESGGGLVQAGGSLRLSCAASGSTFYNNAMGWYRQAPGKERELVAAITASGGRTYYADSVKGRFTISRDNAKNTVYLQMNSLKPEDTAVYYCAADGHAGYPIDEYYYWGQGTQVTVSS = high polyreactivity
10. HVQLVESGGGLVQAGGSLRLSCAASGSIFSENTMGWYRQAPGKEWELVAAISWSGGSTNYADSVKGRFTISRDNAKNTVYLQMNSLKPEDTAVYYCAKDVGSADPTYYYWGQGTQVTVSS = low polyreactivity
11. QVQLVESGGGVVQSRGSLRLTCAASGRIFLQYAMGWYRQAPWKERELVAAIEWSGGRTYYADSVKGRFTISRDNAKNTVYLQMNSLTPEDTAVYYCAARRISGSAVRGSRGYWGQGTQVTVSS = high polyreactivity
